Target: AKT1 (human)
Conditions: compound 1.0 µM
Please respond with reported inhibition for every item in the list.
Numbers only, in %.

Solved cases below.
molecule	observed result
Cc1ccc(-c2nn(C(C)(C)C)c3ncnc(N)c23)cc1	10.6
CS(=O)c1ccc(-c2nc(-c3ccc(F)cc3)c(-c3ccncc3)[nH]2)cc1 (configuration not stated)	0.56

Hi there! I need inhibition for each item below, if you can.
1. CC[C@@H](CO)Nc1nc(NCc2ccccc2)c2ncn(C(C)C)c2n1
2. C#Cc1cccc(Nc2ncnc3cc(OCCOC)c(OCCOC)cc23)c1
3. CS(=O)(=O)CCNCc1ccc(-c2ccc3ncnc(Nc4ccc(OCc5cccc(F)c5)c(Cl)c4)c3c2)o1
4. O=S(=O)(c1cccc2cnccc12)N1CCCNCC1
5. O=C1NCCc2[nH]c(-c3ccnc(-c4ccccc4F)c3)cc21

**A:**
1: 0; 2: 11.1; 3: 0; 4: 16; 5: 3.5
